Numbers sourced from PubChem BioAssay (NCI).

Measured TGI accompanies every entry in the list below.
- Test system: U251 CNS
- Assay notes: NCI tumour cell line growth inhibition, 48 h

[
  {
    "Molecule": "C[C@]12CC[C@H]3[C@@H](CC=C4C[C@@H](N5CCCC5)CC[C@@]43C)[C@@H]1C/C(=C\\c1cccc(OCCN3CCOCC3)c1)[C@@H]2O",
    "Target desc": "U251 CNS",
    "TGI": "> 100 µM"
  },
  {
    "Molecule": "NC1=NS(=O)(=O)Nc2nc(-c3ccccc3)[nH]c21",
    "Target desc": "U251 CNS",
    "TGI": "> 100 µM"
  }
]

Now let's try a different one.
State its TGI: `O=C1C=CC=C/C1=C1/SC(c2ccccc2)=C(O)N1c1ccccc1`
> 100 µM
